# method: Pharmacokinetics in OATP1A/1B knockout mice
# Format: in vivo
# test_context: OATP1A/1B knockout (Taconic #10707), mouse, plasma, 1 mg/kg, heading: mean clearance, IV 1 mg/kg
observation_type: clearance (mL/min/kg)
Give your result in mL/min/kg as a bare value.

Q. Need clearance of C[C@H]1CCN1c1nc(N2CC[C@H](CC(=O)O)C2)cc(C(F)(F)F)c1C#N [Example 1] , thanks.
A. 1.34

====

# method: Pharmacokinetics in FVB wild type mice
# Format: in vivo
# test_context: mouse, plasma, IV 1 mg/kg
observation_type: half-life (h)
Reply with just the number (in h).

Q. I am curious: what half-life value has been reported for C[C@H]1CCN1c1nc(N2CC[C@H](CC(=O)O)C2)cc(C(F)(F)F)c1C#N [Example 1] ?
A. 5.43
